target of assay: mIgCLL2-2, CLL-derived monoclonal Igγ1 antibody of clonotype CLL2
method description: dose-dependent binding with Scatchard plot analysis
endpoint: Kd (nM)

{"binder": "CKSYSVSLC [pCLL2-2 mimotope]", "endpoint result": 7.57}
